Target: mAb BO2C11 (recloned as a human/mouse chimeric antibody with mouse IgG2a constant chains)
Assay: cyclic peptide microarray incubated with BO2C11
Where no end group is shown, it is not given here.
# label = true (1) if rank of binding signal (01 = strongest) < 10 rank else false (0)

Ask | Strictly below 10 rank in rank of binding signal (01 = strongest)? ELMGCDLNSC (not fully specified (bridges); printed as -----ELMGCDLNSC---; cysteine pairing not given here; also: circularized on the microarray) [peptide 02 of epitope01 (BO2C11 array), SEQ ID NO: 17]
Reply | true (1)

Ask | Request: LRMELMGCDLNSC (cysteine pairing not given here; also: circularized on the microarray) [peptide 20 of epitope01 (BO2C11 array), SEQ ID NO: 27]
Reply | false (0)

Ask | Query LMGCDLN (also: circularized on the microarray) [peptide 24 of epitope01 (BO2C11 array), SEQ ID NO: 28] next
Reply | false (0)

Ask | Same read-out for IALRMEVLGC (also: circularized on the microarray) [peptide 19 of epitope02 (BO2C11 array), SEQ ID NO: 38] ?
Reply | false (0)

Ask | And what about the binder RMELMGCDLN (also: circularized on the microarray) [peptide 17 of epitope01 (BO2C11 array), SEQ ID NO: 25] ?
Reply | false (0)

Ask | What do you get for RMELMGC (also: circularized on the microarray) [peptide 18 of epitope01 (BO2C11 array), SEQ ID NO: 26] ?
Reply | false (0)

Ask | Okay, and RMEVLGC (also: circularized on the microarray) [peptide 14 of epitope02 (BO2C11 array), SEQ ID NO: 36] ?
Reply | false (0)

Ask | Item: EVLGCEAQDLYGS (also: circularized on the microarray) [peptide 13 of epitope02 (BO2C11 array), SEQ ID NO: 35]
Reply | false (0)

Ask | Now try RMEVLGCEAQDLY (also: circularized on the microarray) [peptide 05 of epitope02 (BO2C11 array), SEQ ID NO: 32] .
Reply | true (1)

Ask | Then this binder: CDLNSCS (cysteine pairing not given here; also: circularized on the microarray) [peptide 07 of epitope01 (BO2C11 array), SEQ ID NO: 20]
Reply | true (1)

Ask | Would you mind doing MEVLGCEAQDLYG (also: circularized on the microarray) [peptide 12 of epitope02 (BO2C11 array), SEQ ID NO: 34] as well?
Reply | false (0)

Ask | Try this binder too: EVLGCEA (also: circularized on the microarray) [peptide 16 of epitope02 (BO2C11 array), SEQ ID NO: 37]
Reply | false (0)

Ask | Thanks! And CEAQDLY (not fully specified (bridges); printed as ---------CEAQDLY--; also: circularized on the microarray) [peptide 01 of epitope02 (BO2C11 array), SEQ ID NO: 30] ?
Reply | true (1)

Ask | Request: MEVLGCE (also: circularized on the microarray) [peptide 09 of epitope02 (BO2C11 array), SEQ ID NO: 33]
Reply | true (1)

Ask | GCDLNSCSMP (cysteine pairing not given here; also: circularized on the microarray) [peptide 11 of epitope01 (BO2C11 array), SEQ ID NO: 23] ?
Reply | false (0)

Ask | Now try MELMGCD (also: circularized on the microarray) [peptide 08 of epitope01 (BO2C11 array), SEQ ID NO: 21] .
Reply | true (1)
